Here's a batch of molecules along with measured pIC50 for Acetylcholinesterase (Electrophorus electricus).
# reply with the number alone; pIC50 is -log10 of concentration in mol/L

Inquiry: Given the entry "COc1ccc2c3c1O[C@H]1C[C@@H](O)C=C[C@@]31CCN(c1ccccn1)C2" , report its measured pIC50.
Reply text: 5.44

Inquiry: Given the entry "COc1ccnc(N2CC[C@@]34C=C[C@H](O)C[C@@H]3Oc3c(OC)ccc(c34)C2)c1" , report its measured pIC50.
Reply text: 6.72

Inquiry: Given the entry "COc1cccnc1N1CC[C@@]23C=C[C@H](O)C[C@@H]2Oc2c(OC)ccc(c23)C1" , report its measured pIC50.
Reply text: 4.57

Inquiry: Given the entry "COc1ccc2c3c1O[C@H]1C[C@@H](O)C=C[C@@]31CCN(c1cccc(C)n1)C2" , report its measured pIC50.
Reply text: 4.77

Inquiry: Given the entry "COc1ccc2c3c1O[C@H]1C[C@@H](O)C=C[C@@]31CCN(c1ncccc1C)C2" , report its measured pIC50.
Reply text: 5.77
